Entries and their measured IC50 follow.
study system: N-type calcium channel (Homo sapiens, UniProt Q00975)
Construct: Human neuroblastoma cells IMR-32 were obtained from ATCC; host or cells: IMR-32 human neuroblastoma cells differentiated with dibutyl cAMP and bromodeoxyuridine
Sequence (Q00975 whole entry): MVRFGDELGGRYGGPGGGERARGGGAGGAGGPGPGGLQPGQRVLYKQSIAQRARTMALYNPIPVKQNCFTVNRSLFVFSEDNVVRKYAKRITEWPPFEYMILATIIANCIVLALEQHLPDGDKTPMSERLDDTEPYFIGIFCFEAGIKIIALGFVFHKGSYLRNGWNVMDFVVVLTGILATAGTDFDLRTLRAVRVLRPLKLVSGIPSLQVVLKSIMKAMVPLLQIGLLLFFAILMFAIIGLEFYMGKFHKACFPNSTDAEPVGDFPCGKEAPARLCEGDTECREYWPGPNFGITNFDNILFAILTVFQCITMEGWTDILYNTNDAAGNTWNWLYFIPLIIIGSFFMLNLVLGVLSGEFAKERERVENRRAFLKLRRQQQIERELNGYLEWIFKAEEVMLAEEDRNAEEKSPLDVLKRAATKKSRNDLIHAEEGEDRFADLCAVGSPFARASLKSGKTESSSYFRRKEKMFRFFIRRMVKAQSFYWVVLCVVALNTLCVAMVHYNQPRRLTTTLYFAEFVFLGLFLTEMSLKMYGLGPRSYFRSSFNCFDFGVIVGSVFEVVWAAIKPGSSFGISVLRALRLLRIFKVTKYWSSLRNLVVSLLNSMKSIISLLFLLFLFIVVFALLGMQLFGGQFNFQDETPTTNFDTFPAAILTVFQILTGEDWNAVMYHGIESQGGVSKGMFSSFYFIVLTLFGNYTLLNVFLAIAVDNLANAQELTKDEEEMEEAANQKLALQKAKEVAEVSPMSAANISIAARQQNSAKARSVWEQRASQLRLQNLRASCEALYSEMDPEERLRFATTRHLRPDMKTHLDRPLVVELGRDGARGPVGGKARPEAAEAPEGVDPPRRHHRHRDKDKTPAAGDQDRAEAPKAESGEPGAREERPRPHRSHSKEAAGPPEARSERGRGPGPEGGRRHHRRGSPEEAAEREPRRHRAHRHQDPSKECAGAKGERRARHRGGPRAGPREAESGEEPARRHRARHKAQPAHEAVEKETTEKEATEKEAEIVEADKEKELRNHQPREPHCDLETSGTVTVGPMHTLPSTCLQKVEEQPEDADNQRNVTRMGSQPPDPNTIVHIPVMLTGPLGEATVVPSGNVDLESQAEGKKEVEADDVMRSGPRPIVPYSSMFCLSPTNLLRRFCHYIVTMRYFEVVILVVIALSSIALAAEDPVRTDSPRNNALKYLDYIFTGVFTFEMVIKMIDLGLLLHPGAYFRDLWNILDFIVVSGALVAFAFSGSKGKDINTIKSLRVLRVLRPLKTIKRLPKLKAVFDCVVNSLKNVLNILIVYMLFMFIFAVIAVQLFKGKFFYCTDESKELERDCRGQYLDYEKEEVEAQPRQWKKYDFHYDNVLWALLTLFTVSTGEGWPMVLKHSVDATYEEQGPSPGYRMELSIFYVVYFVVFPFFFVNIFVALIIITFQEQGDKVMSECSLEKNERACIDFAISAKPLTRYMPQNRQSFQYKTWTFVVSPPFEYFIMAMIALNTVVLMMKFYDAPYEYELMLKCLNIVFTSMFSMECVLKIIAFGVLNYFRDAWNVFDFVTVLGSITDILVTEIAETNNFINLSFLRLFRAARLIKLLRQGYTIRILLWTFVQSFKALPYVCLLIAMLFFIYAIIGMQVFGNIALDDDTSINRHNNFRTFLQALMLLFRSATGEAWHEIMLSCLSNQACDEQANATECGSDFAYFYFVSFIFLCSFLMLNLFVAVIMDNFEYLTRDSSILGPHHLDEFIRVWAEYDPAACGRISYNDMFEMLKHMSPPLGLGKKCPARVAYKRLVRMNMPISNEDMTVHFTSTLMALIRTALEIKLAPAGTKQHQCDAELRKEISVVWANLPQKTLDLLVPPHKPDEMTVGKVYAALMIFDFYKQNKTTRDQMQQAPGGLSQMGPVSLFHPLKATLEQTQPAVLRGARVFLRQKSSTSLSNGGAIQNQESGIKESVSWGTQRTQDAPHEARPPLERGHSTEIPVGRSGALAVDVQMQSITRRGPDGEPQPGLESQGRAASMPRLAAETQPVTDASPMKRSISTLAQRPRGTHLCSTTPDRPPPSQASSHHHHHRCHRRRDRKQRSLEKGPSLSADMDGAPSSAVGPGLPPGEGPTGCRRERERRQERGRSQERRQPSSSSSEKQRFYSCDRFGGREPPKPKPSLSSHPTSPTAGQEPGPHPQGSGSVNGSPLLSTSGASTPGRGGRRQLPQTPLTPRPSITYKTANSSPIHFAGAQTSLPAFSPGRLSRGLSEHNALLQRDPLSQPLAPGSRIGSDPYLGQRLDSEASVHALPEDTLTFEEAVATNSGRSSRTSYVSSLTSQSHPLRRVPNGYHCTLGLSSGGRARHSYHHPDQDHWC
Sequence (P54289 25-956 partner limits assumed): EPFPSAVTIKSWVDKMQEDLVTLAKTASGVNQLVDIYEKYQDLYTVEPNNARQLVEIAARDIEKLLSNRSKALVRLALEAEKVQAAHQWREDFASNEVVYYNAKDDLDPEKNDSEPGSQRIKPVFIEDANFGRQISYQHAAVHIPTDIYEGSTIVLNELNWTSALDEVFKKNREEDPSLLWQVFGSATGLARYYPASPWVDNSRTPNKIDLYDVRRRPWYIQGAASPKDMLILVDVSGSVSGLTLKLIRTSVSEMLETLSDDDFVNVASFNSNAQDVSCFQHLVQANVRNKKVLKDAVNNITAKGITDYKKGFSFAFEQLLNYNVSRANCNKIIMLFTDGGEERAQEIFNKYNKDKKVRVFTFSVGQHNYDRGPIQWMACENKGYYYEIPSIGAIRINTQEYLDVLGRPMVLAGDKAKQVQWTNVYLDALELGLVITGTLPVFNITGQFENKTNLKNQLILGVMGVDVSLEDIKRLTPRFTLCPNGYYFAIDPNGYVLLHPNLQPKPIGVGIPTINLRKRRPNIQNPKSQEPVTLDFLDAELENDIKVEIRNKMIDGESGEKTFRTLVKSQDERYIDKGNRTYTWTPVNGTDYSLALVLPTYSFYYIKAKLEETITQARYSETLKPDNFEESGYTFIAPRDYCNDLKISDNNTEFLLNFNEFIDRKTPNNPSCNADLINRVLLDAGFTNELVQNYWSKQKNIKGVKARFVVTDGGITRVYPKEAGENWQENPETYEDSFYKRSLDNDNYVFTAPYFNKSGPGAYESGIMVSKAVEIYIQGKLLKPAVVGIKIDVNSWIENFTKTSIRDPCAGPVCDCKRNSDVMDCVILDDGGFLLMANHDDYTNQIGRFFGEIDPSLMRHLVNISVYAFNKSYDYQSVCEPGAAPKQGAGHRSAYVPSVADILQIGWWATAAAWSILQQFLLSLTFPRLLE
Sequence (P54289 957-1103 partner limits assumed): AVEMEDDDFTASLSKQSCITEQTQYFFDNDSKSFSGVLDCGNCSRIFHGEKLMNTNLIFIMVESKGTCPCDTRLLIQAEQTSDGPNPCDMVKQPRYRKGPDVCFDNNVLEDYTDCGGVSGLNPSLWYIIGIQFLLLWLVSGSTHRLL
Sequence (P54284 whole entry partner): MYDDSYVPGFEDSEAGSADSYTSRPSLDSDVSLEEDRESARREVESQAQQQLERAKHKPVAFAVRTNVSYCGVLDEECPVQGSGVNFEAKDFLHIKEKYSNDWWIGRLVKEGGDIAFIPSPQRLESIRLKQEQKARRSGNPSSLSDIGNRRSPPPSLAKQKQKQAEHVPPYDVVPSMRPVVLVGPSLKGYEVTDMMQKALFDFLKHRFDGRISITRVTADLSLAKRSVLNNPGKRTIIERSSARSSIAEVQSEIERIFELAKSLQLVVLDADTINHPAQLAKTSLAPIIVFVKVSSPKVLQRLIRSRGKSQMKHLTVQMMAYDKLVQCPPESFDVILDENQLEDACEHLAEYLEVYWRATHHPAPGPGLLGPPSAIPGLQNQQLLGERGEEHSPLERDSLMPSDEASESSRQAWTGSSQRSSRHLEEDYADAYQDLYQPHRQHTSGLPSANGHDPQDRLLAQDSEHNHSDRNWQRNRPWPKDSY
protocol notes: Antagonistic activity on N-type calcium channel (fluorescence dye method), IMR-32 cells, changed procedure
Assay type: cell-based
test conditions: Table 3, 60 mM KCl stimulation, calculated from the inhibition rates, read-out: N-type inhibition pIC50 (converted)

# compound, IC50
records = [
    ("COCC1=C(C(=O)OC)C(c2cccc(Cl)c2)C(C(=O)NCCC(c2ccccc2)c2ccccc2)=C(COCCN)N1 (stereo not shown)", "2000 nM"),
    ("CC1=C(C(=O)O)C(c2cccc(Cl)c2)C(C(=O)NC/C=C/c2ccccc2)=C(COCCC2CCCCC2)N1 (stereo not shown)", "794 nM"),
    ("CC1=C(C(=O)O)C(c2cccc(Cl)c2)C(C(=O)NC/C=C/c2ccccc2)=C(COCCc2ccccc2)N1 (stereo not shown)", "2510 nM"),
    ("CC1=C(C(=O)O)C(c2cccc(Cl)c2)C(C(=O)NCCC(c2ccccc2)c2ccccc2)=C(COCCc2ccccn2)N1 (stereo not shown)", "2510 nM"),
]
